Origin of values: paper PMC12683216

- assay-details: Soluble peptide degradation, Cells condition (LC-MS)
- Format: in vitro ADME, human
- condition-context: human, hMSCs in culture with fresh media (Cells condition); Figure 2B heatmap; pooled TAILS-derived soluble peptides (Ac-βAla N-terminus, βAla-amide C-terminus) in media on hMSCs (36000 per well, 48 well plate, 500 µL); 24 h; LC-MS, ratio to βFβA6 internal standard, 24 h / 0 h; N = 5; read-out: Fraction of peptide remaining at 24 hours: hMSC Cells
Where a SMILES comes first, the peptide text is derived from it. [ ]: non-standard residue; d: D form. βAla = NCCC(=O)O
measure-name: remaining at 24 h (%)
Provide only the numeric value, understood in %.

Field remaining at 24 h (entry CC[C@H](C)[C@H](NC(=O)CNC(=O)[C@H](CCC(N)=O)NC(=O)[C@@H]1CCCN1C(=O)CNC(=O)CCNC(C)=O)C(=O)N[C@@H](Cc1c[nH]c2ccccc12)C(=O)NCC(=O)N[C@@H](CCC(N)=O)C(=O)NCCC(N)=O [PanMMP, reference compound] (Ac-[βAla]GPQGIWGQ[βAla]-NH2) ) reads 39

Field remaining at 24 h (entry CC[C@H](C)[C@H](NC(=O)CCNC(C)=O)C(=O)N[C@H](C(=O)N[C@@H](CCCCN)C(=O)N[C@H](C(=O)N[C@@H](CC(=O)O)C(=O)N[C@H](C(=O)N1CCC[C@H]1C(=O)N[C@@H](CC(=O)O)C(=O)N[C@@H](CCSC)C(=O)N[C@H](C(=O)NCCC(N)=O)C(C)C)[C@@H](C)CC)[C@@H](C)O)C(C)C [IVKTDIPDMV] (Ac-[βAla]IVKTDIPDMV[βAla]-NH2) ) reads 96

Field remaining at 24 h (entry CC(=O)NCCC(=O)N[C@@H](C)C(=O)N[C@@H](CO)C(=O)N[C@@H](C)C(=O)N1CCC[C@H]1C(=O)N[C@@H](C)C(=O)N[C@@H](CCCNC(=N)N)C(=O)N1CCC[C@H]1C(=O)N[C@@H](C)C(=O)N[C@@H](CC(C)C)C(=O)N[C@@H](CO)C(=O)NCCC(N)=O [ASAPARPALS] (Ac-[βAla]ASAPARPALS[βAla]-NH2) ) reads 88
